Tested on: hTERT-HMEC;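 also: secreted proteins added to cultured cells, EdU pulse at the end, nuclei found by Hoechst imaging, EdU status from nuclear versus surrounding ring intensity ratio, PBS as neutral control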
EXPERIMENT: percentage of EdU-negative (G0-arrested) nuclei per well, 72 h; higher = more G0 arrest
PARTICULARS: protein concentration 0.225 µM; reference: sequence is the full UniProt precursor, the tested protein was the secreted form or ectodomain
MEASURED ENDPOINT: percentage of EdU-negative (%)
# number only, unit % dropped from output

Worked examples, 3 sequences total:
| MACROMOLECULE SEQUENCE | NUMERIC VALUE |
| --- | --- |
| MARLALSPVPSHWMVALLLLLSAEPVPAARSEDRYRNPKGSACSRIWQSPRFIARKRGFTVKMHCYMNSASGNVSWLWKQEMDENPQQLKLEKGRMEESQNESLATLTIQGIRFEDNGIYFCQQKCNNTSEVYQGCGTELRVMGFSTLAQLKQRNTLKDGIIMIQTLLIILFIIVPIFLLLDKDDSKAGMEEDHTYEGLDIDQTATYEDIVTLRTGEVKWSVGEHPGQE | 8.95 |
| MALTAHPSCLLALLVAGLAQGIRGPLRAQDLGPQPLELKEAFKLFQIQFNRSYLSPEEHAHRLDIFAHNLAQAQRLQEEDLGTAEFGVTPFSDLTEEEFGQLYGYRRAAGGVPSMGREIRSEEPEESVPFSCDWRKVASAISPIKDQKNCNCCWAMAAAGNIETLWRISFWDFVDVSVQELLDCGRCGDGCHGGFVWDAFITVLNNSGLASEKDYPFQGKVRAHRCHPKKYQKVAWIQDFIMLQNNEHRIAQYLATYGPITVTINMKPLQLYRKGVIKATPTTCDPQLVDHSVLLVGFGSVKSEEGIWAETVSSQSQPQPPHPTPYWILKNSWGAQWGEKGYFRLHRGSNTCGITKFPLTARVQKPDMKPRVSCPP | 48.2 |
| MMSFLLGAILTLLWAPTAQAEVLLQPDFNAEKFSGLWYVVSMASDCRVFLGKKDHLSMSTRAIRPTEEGGLHVHMEFPGADGCNQVDAEYLKVGSEGHFRVPALGYLDVRIVDTDYSSFAVLYIYKELEGALSTMVQLYSRTQDVSPQALKSFQDFYPTLGLPKDMMVMLPQSDACNPESKEAP [Q6UWW0] | 6.89 |

So what's the measured percentage of EdU-negative for this one? MQQPFNYPYPQIYWVDSSASSPWAPPGTVLPCPTSVPRRPGQRRPPPPPPPPPLPPPPPPPPLPPLPLPPLKKRGNHSTGLCLLVMFFMVLVALVGLGLGMFQLFHLQKELAELRESTSQMHTASSLEKQIGHPSPPPEKKELRKVAHLTGKSNSRSMPLEWEDTYGIVLLSGVKYKKGGLVINETGLYFVYSKVYFRGQSCNNLPLSHKVYMRNSKYPQDLVMMEGKMMSYCTTGQMWARSSYLGAVFNLTSADHLYVNVSELSLVNFEESQTFFGLYKL
7.46
